assay: NCI Yeast Anticancer Drug Screen. Data for the bub3 strain (AID 167); conditions: S. cerevisiae bub3 mutant strain, at 50.0 µM, hits give high values
About 79,000 compounds went through this panel and 15% of them were active in at least one assay; those are over-represented in the sample as a whole.

MOLECULE: c1cc2nc(c1)CSCCCCCCCSC2
UNIT TEXT: %
growth inhibition: 52.4
--
MOLECULE: O=C(CO)C(O)C(O)C(O)CO (stereo unspecified)
UNIT TEXT: %
growth inhibition: 19.9
--
MOLECULE: CC/C=C(\CCC)C(C#N)(CC)C(=O)OCC (stereo unspecified)
UNIT TEXT: %
growth inhibition: -24.6
--
MOLECULE: O=c1c2[nH]cnc2ncn1Cc1ccccc1
UNIT TEXT: %
growth inhibition: -20.6
--
MOLECULE: Nc1cc(N)nc(S(=O)(=O)O)n1
UNIT TEXT: %
growth inhibition: 3.6
--
MOLECULE: O=C1OCCOCCOCCOCCOCCOCCOC(=O)c2cccc1n2
UNIT TEXT: %
growth inhibition: -0.35
--
MOLECULE: OCC1(CO)CCC=CO1
UNIT TEXT: %
growth inhibition: 1.05
--
MOLECULE: CN(C)C(=S)/N=C1\SCS(=O)(=O)N1C
UNIT TEXT: %
growth inhibition: -6.6
--
MOLECULE: C/C(O)=C(\C=NC(=S)c1ccncc1)C(=O)Nc1ccccc1C
UNIT TEXT: %
growth inhibition: -4.5
--
MOLECULE: CSc1ccccc1C(C)(C)O
UNIT TEXT: %
growth inhibition: -1.4
--
MOLECULE: COc1cc(C(=O)OCCOC(=O)c2ccc(O)c(OC)c2)ccc1O
UNIT TEXT: %
growth inhibition: 51.7
--
MOLECULE: COc1cc(/C=N\NS(=O)(=O)c2ccc(N)cc2)ccc1O
UNIT TEXT: %
growth inhibition: -24.8
--
MOLECULE: O=[N+]([O-])c1ccc(N=Cc2ccc(O)cc2)cc1
UNIT TEXT: %
growth inhibition: -4.35
--
MOLECULE: COc1ccc(CCNC(=O)CCC2CCN(CCc3ccc(OC)c(OC)c3)CC2)cc1OC
UNIT TEXT: %
growth inhibition: -1.5
--
MOLECULE: COCC(=O)Oc1ccc[nH]c1=O
UNIT TEXT: %
growth inhibition: -7.25
--
MOLECULE: CCOC(=O)C(NC(=S)Cc1ccccc1)C(=O)OCC
UNIT TEXT: %
growth inhibition: 9.75

* * *

assay: NCI Yeast Anticancer Drug Screen. Data for the cln2 rad14 strain (AID 165);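 further: 0% = growth equal to vehicle treated cultures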; details: S. cerevisiae cln2 rad14 strain, at 50.0 µM, hits give high values
About 79,000 compounds went through this panel and 15% of them were active in at least one assay; those are over-represented in the sample as a whole.
Below: a set of entries, each annotated with reported growth inhibition.

MOLECULE: COC(=O)C(C(C[N+](=O)[O-])c1ccco1)=P(c1ccccc1)(c1ccccc1)c1ccccc1 (stereo not given)
UNIT TEXT: %
growth inhibition: 8.15
--
MOLECULE: CC(=O)O[C@H]1CSC[C@@H](OC(C)=O)C1[N+](=O)[O-] (stereo not given in full)
UNIT TEXT: %
growth inhibition: 43.2
--
MOLECULE: COc1cc(Br)c2ncccc2c1
UNIT TEXT: %
growth inhibition: 4.05
--
MOLECULE: Cc1n[nH]c(=S)n1N
UNIT TEXT: %
growth inhibition: -25.9
--
MOLECULE: O=S(=O)(N/N=C/c1c(Cl)cccc1Cl)c1ccccc1
UNIT TEXT: %
growth inhibition: -9.35
--
MOLECULE: O=C1NC(=O)c2c(Br)c(Br)c(Br)c(Br)c21
UNIT TEXT: %
growth inhibition: 9.6
--
MOLECULE: Cc1occc1C(=S)Nc1ccc(Cl)c(/C=N/OC2CCCC2)c1
UNIT TEXT: %
growth inhibition: 30.7
--
MOLECULE: C=CCOC(=O)Oc1ccc(Cl)cc1
UNIT TEXT: %
growth inhibition: -0.85
--
MOLECULE: CC12CCC(C1)C(C)(C)/C2=N\O (stereo not given)
UNIT TEXT: %
growth inhibition: 4.85
--
MOLECULE: N#CCSc1c(-c2ccccc2)c(=O)n(-c2ccccc2)c(=S)n1-c1ccccc1
UNIT TEXT: %
growth inhibition: -16.8
--
MOLECULE: O=[N+]([O-])c1cccc([I+]c2cccc([N+](=O)[O-])c2)c1
UNIT TEXT: %
growth inhibition: 96.5
--
MOLECULE: Cc1cc(C)cc(C(=O)N=C(c2ccncc2)c2nc(-c3ccccc3)oc2O)c1
UNIT TEXT: %
growth inhibition: -12.4
--
MOLECULE: CC(=O)OCC1OC(n2cc(C)c(=O)[nH]c2=O)C(NC(=O)C(Cl)(Cl)Cl)C(OC(C)=O)C1OC(C)=O (stereo not given)
UNIT TEXT: %
growth inhibition: 0
--
MOLECULE: CC1(C)C=C(C(Br)c2cccc(Cl)c2)C(=O)c2ccccc21 (stereo not given)
UNIT TEXT: %
growth inhibition: 99
--
MOLECULE: Cc1cn(C2CC(OC(=O)C(Cc3ccccc3)NC(=O)OCc3ccccc3)C(COC(=O)C(Cc3ccccc3)NC(=O)OCc3ccccc3)O2)c(=O)[nH]c1=O (stereo not given)
UNIT TEXT: %
growth inhibition: -26.7
--
MOLECULE: Cc1ccc(C)c(C(=O)c2ccccc2)c1C(=O)O
UNIT TEXT: %
growth inhibition: -29.9
--
MOLECULE: COC(=O)c1nc(N)nc(C(=O)OC)c1C(=O)/C=C/c1ccccc1
UNIT TEXT: %
growth inhibition: -16.1
--
MOLECULE: CSc1ccc(NC(=O)Nc2cc(C)ccn2)cc1
UNIT TEXT: %
growth inhibition: -37.8
--
MOLECULE: NNC(=O)Cc1ccc2ccccc2c1
UNIT TEXT: %
growth inhibition: -7.05
--
MOLECULE: NS(=O)(=O)c1ccc(NO)cc1
UNIT TEXT: %
growth inhibition: -15.2
--
MOLECULE: COc1nc(NC2OC(CO)C(O)C(O)C2O)c(C(C)=O)c(=O)[nH]1 (stereo not given)
UNIT TEXT: %
growth inhibition: -0.1
--
MOLECULE: O=C(Nc1ccccc1Cl)OCCOc1ccccc1
UNIT TEXT: %
growth inhibition: -19.1
--
MOLECULE: CC1(C)/C(=C/N=O)N(O)C(C)(C)N1O
UNIT TEXT: %
growth inhibition: 5.75
--
MOLECULE: COC(=O)C1(Cc2ccc3c(c2)CCC3)Cc2ccccc2C1=O (stereo not given)
UNIT TEXT: %
growth inhibition: 21.6
--
MOLECULE: CCOC(=O)c1ccc(N=NC2Sc3nc4ccccc4n3C2=O)cc1 (stereo not given)
UNIT TEXT: %
growth inhibition: -51.4
